Value source: ChEMBL document CHEMBL2062454

Molecular target: Phosphatidylinositol 4,5-bisphosphate 3-kinase catalytic subunit delta isoform (Homo sapiens, UniProt O00329)
Sequence (O00329 whole entry): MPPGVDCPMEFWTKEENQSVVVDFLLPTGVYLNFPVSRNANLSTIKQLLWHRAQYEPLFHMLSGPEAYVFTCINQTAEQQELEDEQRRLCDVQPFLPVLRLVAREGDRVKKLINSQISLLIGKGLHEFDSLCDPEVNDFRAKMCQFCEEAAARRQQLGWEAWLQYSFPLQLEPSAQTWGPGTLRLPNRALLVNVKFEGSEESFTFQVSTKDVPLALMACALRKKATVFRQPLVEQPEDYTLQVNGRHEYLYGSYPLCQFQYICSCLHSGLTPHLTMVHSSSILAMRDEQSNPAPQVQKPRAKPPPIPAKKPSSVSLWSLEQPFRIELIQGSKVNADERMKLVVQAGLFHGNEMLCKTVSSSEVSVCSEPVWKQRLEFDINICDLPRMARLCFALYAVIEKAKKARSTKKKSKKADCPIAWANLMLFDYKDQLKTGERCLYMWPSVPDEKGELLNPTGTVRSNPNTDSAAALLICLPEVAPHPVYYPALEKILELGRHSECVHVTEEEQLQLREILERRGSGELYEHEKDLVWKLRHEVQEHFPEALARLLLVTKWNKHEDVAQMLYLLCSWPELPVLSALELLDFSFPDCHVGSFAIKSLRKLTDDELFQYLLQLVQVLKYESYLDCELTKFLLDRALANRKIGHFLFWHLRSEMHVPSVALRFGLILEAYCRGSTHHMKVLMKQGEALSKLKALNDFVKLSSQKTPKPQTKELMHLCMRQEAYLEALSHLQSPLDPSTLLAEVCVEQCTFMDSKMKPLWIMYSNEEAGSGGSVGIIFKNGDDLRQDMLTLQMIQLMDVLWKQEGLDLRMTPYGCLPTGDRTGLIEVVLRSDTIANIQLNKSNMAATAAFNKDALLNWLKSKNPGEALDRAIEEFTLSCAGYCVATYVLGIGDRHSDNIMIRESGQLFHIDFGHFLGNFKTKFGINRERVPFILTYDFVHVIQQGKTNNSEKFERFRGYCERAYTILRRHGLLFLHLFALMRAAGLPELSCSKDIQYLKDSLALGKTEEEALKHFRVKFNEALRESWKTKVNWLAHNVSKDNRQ
Assay: Inhibition of PI3Kdelta by high throughput chemoproteomics binding assay
pIC50: −log10 of the molar value.
Reported pIC50 by item:
QUANTITY_NAME: pIC50

>  <STRUCTURE_NOTATION>
CC(=O)Nc1nc2ccc(-c3cncc4ccccc34)cn2n1

>  <MEASURED_VALUE>
< 4.00

$$$$
>  <STRUCTURE_NOTATION>
CC(=O)Nc1nc2c(C)cc(-c3cncc(S(C)(=O)=O)c3)cn2n1

>  <MEASURED_VALUE>
< 5.30

$$$$
>  <STRUCTURE_NOTATION>
Nc1nc2ccc(-c3cncc(S(=O)(=O)Nc4ccc(Cl)cc4)c3)cn2n1

>  <MEASURED_VALUE>
5.20

$$$$
>  <STRUCTURE_NOTATION>
CC(=O)Nc1nc2ccc(-c3cncc(S(=O)(=O)NCc4ccccc4)c3)cn2n1

>  <MEASURED_VALUE>
5.50

$$$$
>  <STRUCTURE_NOTATION>
COc1ccc(-c2ccc3nc(NC(C)=O)nn3c2)cc1

>  <MEASURED_VALUE>
4.50

$$$$
>  <STRUCTURE_NOTATION>
CC(=O)Nc1nc2ccc(-c3cncnc3)cn2n1

>  <MEASURED_VALUE>
< 4.00

$$$$
>  <STRUCTURE_NOTATION>
CC(=O)Nc1nc2ccc(-c3ccsc3)cn2n1

>  <MEASURED_VALUE>
< 4.70

$$$$
>  <STRUCTURE_NOTATION>
CC(=O)Nc1nc2cc(C)c(-c3cncc(S(C)(=O)=O)c3)cn2n1

>  <MEASURED_VALUE>
< 4.00

$$$$
>  <STRUCTURE_NOTATION>
CNS(=O)(=O)c1ccc(-c2ccc3nc(NC(C)=O)nn3c2)cc1

>  <MEASURED_VALUE>
< 4.00

$$$$
>  <STRUCTURE_NOTATION>
CS(=O)(=O)c1cncc(-c2cc(C(F)(F)F)c3nc(N)nn3c2)c1

>  <MEASURED_VALUE>
< 4.00

$$$$
>  <STRUCTURE_NOTATION>
Nc1nc2ccc(-c3cncc(S(=O)(=O)NCC4CC4)c3)cn2n1

>  <MEASURED_VALUE>
< 5.20

$$$$
